Values from patent US4006144A

assay: Cataleptic action in rats (homolateral extremities crossed position); assay type: in vivo; conditions: rat, in vivo, ip; rats, intraperitoneal; noted every 30 minutes for 6 hours; read-out: ED50 (dose at which 50% of the animals show catalepsy)
observed.property: TD50 at 6 h (mg/kg)
Report the value in mg/kg with no unit label.

// query Give the value of TD50 at 6 h reported for the following: Cc1ccc2c(c1)CC(N1CCN(CCN3CCOC3=O)CC1)c1ccccc1S2.O=C(O)/C=C\C(=O)O (stereo not shown) [Product B]
// result 70

----------
experiment: Cataleptic action in rats (homolateral extremities crossed position); assay type: in vivo; details: rat, in vivo, ip
observed.property: TD50 at 6 h

// query Give me measured TD50 at 6 h, please, for this compound: O=C1OCCN1CCN1CCN(C2Cc3cc(Cl)ccc3Sc3ccccc32)CC1 (stereo not shown)
// result > 100 mg/kg
